target: interaction of ICAM-1 with the Leukointegrin CD18/CD11a (LFA-1) (Homo sapiens, UniProt P05107+P20701); construct: endogenous in cells; sICAM-1: made in house, secreted from transfected CHO DUX cells; experiment: Assay to determine inhibition of LFA-1 binding to ICAM-1 (immunopurified LFA-1 on plate-bound sICAM-1, ELISA readout); details: values marked e approximated from incomplete dose-response curve
Sequence (P20701 26-1170): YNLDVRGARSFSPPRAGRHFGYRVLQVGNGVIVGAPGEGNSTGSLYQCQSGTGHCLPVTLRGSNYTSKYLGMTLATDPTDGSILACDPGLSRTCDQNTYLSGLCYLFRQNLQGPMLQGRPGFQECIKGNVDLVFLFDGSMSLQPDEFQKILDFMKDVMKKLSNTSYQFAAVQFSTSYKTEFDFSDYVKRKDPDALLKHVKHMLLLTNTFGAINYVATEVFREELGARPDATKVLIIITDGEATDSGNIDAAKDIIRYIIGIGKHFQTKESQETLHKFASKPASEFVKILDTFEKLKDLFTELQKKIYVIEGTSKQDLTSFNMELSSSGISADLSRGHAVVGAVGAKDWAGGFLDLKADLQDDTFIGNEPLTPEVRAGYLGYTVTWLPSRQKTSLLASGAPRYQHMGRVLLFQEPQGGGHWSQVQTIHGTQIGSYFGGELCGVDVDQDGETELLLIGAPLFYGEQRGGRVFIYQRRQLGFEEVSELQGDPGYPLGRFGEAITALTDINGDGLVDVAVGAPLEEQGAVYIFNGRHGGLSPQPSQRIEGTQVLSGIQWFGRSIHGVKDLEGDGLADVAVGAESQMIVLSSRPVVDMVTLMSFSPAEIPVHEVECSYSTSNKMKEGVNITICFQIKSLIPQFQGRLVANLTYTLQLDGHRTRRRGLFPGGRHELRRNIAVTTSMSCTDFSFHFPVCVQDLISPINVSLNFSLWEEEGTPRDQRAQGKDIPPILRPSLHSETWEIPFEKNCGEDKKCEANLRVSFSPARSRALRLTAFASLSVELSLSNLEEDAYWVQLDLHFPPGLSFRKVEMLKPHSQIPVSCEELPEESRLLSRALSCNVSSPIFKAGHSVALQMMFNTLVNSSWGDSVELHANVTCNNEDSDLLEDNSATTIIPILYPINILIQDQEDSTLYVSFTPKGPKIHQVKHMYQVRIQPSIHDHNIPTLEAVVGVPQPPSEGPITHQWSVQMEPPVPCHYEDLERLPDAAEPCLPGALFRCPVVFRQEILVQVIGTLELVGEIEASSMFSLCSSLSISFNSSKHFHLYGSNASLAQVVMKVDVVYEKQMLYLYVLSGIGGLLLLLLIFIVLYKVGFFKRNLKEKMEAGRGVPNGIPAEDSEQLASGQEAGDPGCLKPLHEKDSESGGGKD
Sequence (P05107 23-769): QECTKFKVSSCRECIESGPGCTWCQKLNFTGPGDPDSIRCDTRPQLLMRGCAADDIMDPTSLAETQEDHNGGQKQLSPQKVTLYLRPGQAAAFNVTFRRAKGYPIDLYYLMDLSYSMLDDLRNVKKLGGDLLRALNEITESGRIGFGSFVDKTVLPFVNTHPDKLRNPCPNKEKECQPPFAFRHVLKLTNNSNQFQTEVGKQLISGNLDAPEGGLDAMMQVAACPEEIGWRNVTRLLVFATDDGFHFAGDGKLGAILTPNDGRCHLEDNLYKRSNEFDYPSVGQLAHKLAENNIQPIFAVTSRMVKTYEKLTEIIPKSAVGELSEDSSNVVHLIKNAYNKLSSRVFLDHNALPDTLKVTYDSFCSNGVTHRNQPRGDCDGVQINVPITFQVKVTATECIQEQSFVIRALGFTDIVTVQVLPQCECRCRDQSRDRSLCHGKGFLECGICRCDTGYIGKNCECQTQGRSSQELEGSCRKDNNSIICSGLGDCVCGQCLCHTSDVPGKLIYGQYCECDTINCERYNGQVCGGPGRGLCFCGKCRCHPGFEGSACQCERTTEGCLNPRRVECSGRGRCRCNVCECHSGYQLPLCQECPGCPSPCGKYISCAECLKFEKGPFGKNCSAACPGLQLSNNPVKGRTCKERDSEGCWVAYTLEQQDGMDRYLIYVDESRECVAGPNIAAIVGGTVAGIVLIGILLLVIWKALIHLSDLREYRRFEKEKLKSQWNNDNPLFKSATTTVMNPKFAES
property-measured: pKd
One number for each entry, as −log10 of the molar value.

Example entries begin here.
compound="CN1C(=O)N(c2cc(Cl)cc(Cl)c2)C(=O)C1(C)Cc1ccc(S(C)(=O)=O)cc1 (stereo not shown) [Example 176]" property_measured=pKd observed_value=5.40
compound="C[C@]1(Cc2ccc([N+](=O)[O-])cc2)NC(=O)N(c2cc(Cl)cc(Cl)c2)C1=O [Example 44]" property_measured=pKd observed_value=6.38
compound="C[C@H](O)CN1C(=O)N(c2cc(Cl)cc(Cl)c2)C(=O)[C@@]1(C)Cc1ccc(Br)cc1 [Example 116]" property_measured=pKd observed_value=6.72

Could you now look at the following compound, please?
query: What measured pKd goes with CN1C(=O)N(c2cc(Cl)cc(Cl)c2)C(=O)C1(C)Cc1ccc([N+](=O)[O-])cc1 (stereo not shown) [Example 157] ?
result: 7.43
